Reported EC50 values for the following compounds.
biological target: Muscarinic acetylcholine receptor M5 (Homo sapiens, UniProt P08912); experiment: Positive allosteric modulator activity at human muscarinic acetylcholine receptor M5 expressed in CHO cells by fluorometric imaging plate reader; assay type: cell-based
Sequence (P08912 whole entry): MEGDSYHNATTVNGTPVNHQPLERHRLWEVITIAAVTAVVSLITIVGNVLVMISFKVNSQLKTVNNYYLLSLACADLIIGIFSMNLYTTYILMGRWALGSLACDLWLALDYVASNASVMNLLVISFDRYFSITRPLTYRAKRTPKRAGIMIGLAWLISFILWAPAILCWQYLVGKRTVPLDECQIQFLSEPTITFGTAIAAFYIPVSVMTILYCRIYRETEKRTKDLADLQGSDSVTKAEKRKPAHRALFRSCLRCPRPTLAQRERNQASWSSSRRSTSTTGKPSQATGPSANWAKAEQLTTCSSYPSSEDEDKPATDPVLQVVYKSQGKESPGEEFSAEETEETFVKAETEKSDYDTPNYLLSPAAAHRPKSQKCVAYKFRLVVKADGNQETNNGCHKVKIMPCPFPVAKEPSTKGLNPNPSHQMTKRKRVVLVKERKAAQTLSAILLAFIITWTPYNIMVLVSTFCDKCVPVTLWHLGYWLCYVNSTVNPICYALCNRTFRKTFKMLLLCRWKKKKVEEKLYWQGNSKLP
Number in µM, nothing else.

Q) For the compound shown here, Fc1cccc(/C=N/N=C/c2cccc(F)c2)c1 , give the reported EC50.
A) 2.6

Q) For the compound shown here, O=C(N[C@H]1C[C@@H](O)C1)c1ccc(C#Cc2cccc(F)c2)cn1 , give the reported EC50.
A) 0.033

* * *

target: Muscarinic acetylcholine receptor M5 (Homo sapiens, UniProt P08912); test: Negative allosteric modulator activity at human muscarinic acetylcholine receptor M5 expressed in CHO cells by fluorometric imaging plate reader; format: cell-based
recorded-endpoint: EC50
In your response, the unit should come after the numeric value.

Q) For the compound shown here, COc1cccc(/C=N/N=C/c2cccc(OC)c2)c1 , give the reported EC50.
A) 3 µM
